Cited source for all entries: patent US20090137572A1

molecular target: Flt3 (FMS-like tyrosine kinase-3) (Homo sapiens, UniProt P36888); assay: Kinase assay (radioactive phosphate incorporation), Flt3; assay type: biochemical; settings: pIC50 is -log(IC50, M), read-out: Kinase Inhibition pIC50 Flt3 (converted)
Sequence (P36888 27-993, species assumed): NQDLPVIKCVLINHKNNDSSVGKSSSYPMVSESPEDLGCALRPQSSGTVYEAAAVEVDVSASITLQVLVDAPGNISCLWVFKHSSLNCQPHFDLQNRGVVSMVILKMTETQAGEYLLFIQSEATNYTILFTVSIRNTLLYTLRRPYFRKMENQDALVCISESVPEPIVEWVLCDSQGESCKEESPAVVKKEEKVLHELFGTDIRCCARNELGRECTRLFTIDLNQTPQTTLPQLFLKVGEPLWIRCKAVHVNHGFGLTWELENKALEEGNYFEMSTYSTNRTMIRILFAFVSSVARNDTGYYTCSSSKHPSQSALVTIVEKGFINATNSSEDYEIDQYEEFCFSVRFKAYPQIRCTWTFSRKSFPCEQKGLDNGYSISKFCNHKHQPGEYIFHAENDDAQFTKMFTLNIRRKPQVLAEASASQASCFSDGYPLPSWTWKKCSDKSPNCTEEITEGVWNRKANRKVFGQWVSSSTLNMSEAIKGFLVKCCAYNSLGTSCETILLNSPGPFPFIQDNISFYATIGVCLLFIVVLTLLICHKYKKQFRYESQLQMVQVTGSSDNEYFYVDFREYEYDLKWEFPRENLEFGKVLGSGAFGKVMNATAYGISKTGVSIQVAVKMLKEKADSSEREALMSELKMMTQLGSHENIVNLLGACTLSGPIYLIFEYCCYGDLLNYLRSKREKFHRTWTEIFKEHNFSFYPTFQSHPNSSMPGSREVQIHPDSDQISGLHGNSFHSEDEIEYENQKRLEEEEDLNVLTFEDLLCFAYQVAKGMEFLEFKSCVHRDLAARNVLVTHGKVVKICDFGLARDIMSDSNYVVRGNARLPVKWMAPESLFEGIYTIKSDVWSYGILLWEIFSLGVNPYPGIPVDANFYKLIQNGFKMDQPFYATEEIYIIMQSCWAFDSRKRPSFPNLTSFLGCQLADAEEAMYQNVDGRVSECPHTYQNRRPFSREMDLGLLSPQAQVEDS
RECORDED_METRIC: IC50 (nM)

INSERT INTO measurements (molecule, assay_system, recorded_metric, quantitative_result) VALUES
  ('CCNc1nc(C)c(-c2ccnc(Nc3cccc(S(N)(=O)=O)c3)n2)s1', 'Flt3 (FMS-like tyrosine kinase-3) (Homo sapiens, UniProt P36888)', 'IC50', 158),
  ('CCNc1nc(C)c(-c2ccnc(Nc3cccc(S(C)(=O)=O)c3)n2)s1', 'Flt3 (FMS-like tyrosine kinase-3) (Homo sapiens, UniProt P36888)', 'IC50', 79.4),
  ('COc1cc(Nc2nccc(-c3sc(NCCc4ccccc4)nc3C)n2)cc(OC)c1OC', 'Flt3 (FMS-like tyrosine kinase-3) (Homo sapiens, UniProt P36888)', 'IC50', 20),
  ('COc1cc(Nc2nccc(-c3sc(C)nc3C)n2)cc(OC)c1OC', 'Flt3 (FMS-like tyrosine kinase-3) (Homo sapiens, UniProt P36888)', 'IC50', 63.1),
  ('CCNS(=O)(=O)c1cccc(Nc2nccc(-c3sc(N)nc3C)n2)c1', 'Flt3 (FMS-like tyrosine kinase-3) (Homo sapiens, UniProt P36888)', 'IC50', 200),
  ('Cc1nc(N)sc1-c1ccnc(Nc2cccc(CNS(=O)(=O)C(F)(F)F)c2)n1', 'Flt3 (FMS-like tyrosine kinase-3) (Homo sapiens, UniProt P36888)', 'IC50', 794),
  ('Cc1nc(C)c(-c2ccnc(Nc3cc(CO)cc(CO)c3)n2)s1', 'Flt3 (FMS-like tyrosine kinase-3) (Homo sapiens, UniProt P36888)', 'IC50', 200),
  ('CNc1nc(C)c(-c2ccnc(Nc3ccc(CNC(C)=O)cc3)n2)s1', 'Flt3 (FMS-like tyrosine kinase-3) (Homo sapiens, UniProt P36888)', 'IC50', 79.4),
  ('COc1cc(Nc2nccc(-c3sc(-c4cccnc4)nc3C)n2)ccc1N1CCOCC1', 'Flt3 (FMS-like tyrosine kinase-3) (Homo sapiens, UniProt P36888)', 'IC50', 100),
  ('CC(=O)NCc1ccc(Nc2nccc(-c3sc(N)nc3C)n2)cc1', 'Flt3 (FMS-like tyrosine kinase-3) (Homo sapiens, UniProt P36888)', 'IC50', 158),
  ('CCNc1nc(C)c(-c2ccnc(Nc3cccc(CNS(=O)(=O)C(F)(F)F)c3)n2)s1', 'Flt3 (FMS-like tyrosine kinase-3) (Homo sapiens, UniProt P36888)', 'IC50', 158),
  ('CCNc1nc(C)c(-c2ccnc(Nc3ccc(S(C)(=O)=O)cc3)n2)s1', 'Flt3 (FMS-like tyrosine kinase-3) (Homo sapiens, UniProt P36888)', 'IC50', 251),
  ('Cc1nc(C)c(-c2ccnc(Nc3cccc(CN4CCOCC4)c3)n2)s1', 'Flt3 (FMS-like tyrosine kinase-3) (Homo sapiens, UniProt P36888)', 'IC50', 126),
  ('CNS(=O)(=O)c1cccc(Nc2nccc(-c3sc(N)nc3C)n2)c1', 'Flt3 (FMS-like tyrosine kinase-3) (Homo sapiens, UniProt P36888)', 'IC50', 1000),
  ('CNc1nc(C)c(-c2ccnc(Nc3cccc(S(=O)(=O)NCCOC)c3)n2)s1', 'Flt3 (FMS-like tyrosine kinase-3) (Homo sapiens, UniProt P36888)', 'IC50', 251),
  ('CNc1nc(C)c(-c2ccnc(Nc3cc(CO)cc(CO)c3)n2)s1', 'Flt3 (FMS-like tyrosine kinase-3) (Homo sapiens, UniProt P36888)', 'IC50', 63.1),
  ('CCNc1nc(C)c(-c2ccnc(Nc3ccc(N4CC(C)OC(C)C4)cc3)n2)s1 (centres unmarked)', 'Flt3 (FMS-like tyrosine kinase-3) (Homo sapiens, UniProt P36888)', 'IC50', 39.8),
  ('CCNc1nc(C)c(-c2ccnc(Nc3cccc(CNS(C)(=O)=O)c3)n2)s1', 'Flt3 (FMS-like tyrosine kinase-3) (Homo sapiens, UniProt P36888)', 'IC50', 50.1),
  ('Cc1nc(C)c(-c2ccnc(Nc3cccc(CNS(C)(=O)=O)c3)n2)s1', 'Flt3 (FMS-like tyrosine kinase-3) (Homo sapiens, UniProt P36888)', 'IC50', 200),
  ('Cc1nc(N)sc1-c1ccnc(Nc2cccc(CNS(C)(=O)=O)c2)n1', 'Flt3 (FMS-like tyrosine kinase-3) (Homo sapiens, UniProt P36888)', 'IC50', 50.1),
  ('CCNc1nc(C)c(-c2ccnc(Nc3ccc(CNC(C)=O)cc3)n2)s1', 'Flt3 (FMS-like tyrosine kinase-3) (Homo sapiens, UniProt P36888)', 'IC50', 31.6),
  ('CNc1nc(C)c(-c2ccnc(Nc3ccc(C)c(Br)c3)n2)s1', 'Flt3 (FMS-like tyrosine kinase-3) (Homo sapiens, UniProt P36888)', 'IC50', 79.4),
  ('COCCOC(=O)Cc1cccc(Nc2nccc(-c3sc(N)nc3C)n2)c1', 'Flt3 (FMS-like tyrosine kinase-3) (Homo sapiens, UniProt P36888)', 'IC50', 126),
  ('CCNc1nc(C)c(-c2ccnc(Nc3cccc(CC(=O)OCCOC)c3)n2)s1', 'Flt3 (FMS-like tyrosine kinase-3) (Homo sapiens, UniProt P36888)', 'IC50', 100),
  ('CNc1nc(C)c(-c2ccnc(Nc3ccc(S(N)(=O)=O)cc3)n2)s1', 'Flt3 (FMS-like tyrosine kinase-3) (Homo sapiens, UniProt P36888)', 'IC50', 316),
  ('CNc1nc(C)c(-c2ccnc(Nc3cccc(S(=O)(=O)NCCO)c3)n2)s1', 'Flt3 (FMS-like tyrosine kinase-3) (Homo sapiens, UniProt P36888)', 'IC50', 100),
  ('CNc1nc(C)c(-c2ccnc(Nc3cccc(N4CCNCC4)c3)n2)s1', 'Flt3 (FMS-like tyrosine kinase-3) (Homo sapiens, UniProt P36888)', 'IC50', 12.6),
  ('CCNc1nc(C)c(-c2ccnc(Nc3cccc(S(=O)(=O)NCCO)c3)n2)s1', 'Flt3 (FMS-like tyrosine kinase-3) (Homo sapiens, UniProt P36888)', 'IC50', 63.1),
  ('Cc1ccc(Nc2nccc(-c3sc(N)nc3C)n2)cc1S(=O)(=O)N1CCOCC1', 'Flt3 (FMS-like tyrosine kinase-3) (Homo sapiens, UniProt P36888)', 'IC50', 200),
  ('CNc1nc(C)c(-c2ccnc(Nc3cccc(S(=O)(=O)NC)c3)n2)s1', 'Flt3 (FMS-like tyrosine kinase-3) (Homo sapiens, UniProt P36888)', 'IC50', 158),
  ('CCNc1nc(C)c(-c2ccnc(Nc3cccc(S(=O)(=O)NC)c3)n2)s1', 'Flt3 (FMS-like tyrosine kinase-3) (Homo sapiens, UniProt P36888)', 'IC50', 79.4),
  ('Cc1nc(C)c(-c2ccnc(Nc3cccc(N4CCNCC4)c3)n2)s1', 'Flt3 (FMS-like tyrosine kinase-3) (Homo sapiens, UniProt P36888)', 'IC50', 50.1);
